# SYSTEM TESTED: human receptor tyrosine kinase like orphan receptor 1 (ROR1) (human, UniProt Q01973 30-937)
# Sequence (Q01973 30-937): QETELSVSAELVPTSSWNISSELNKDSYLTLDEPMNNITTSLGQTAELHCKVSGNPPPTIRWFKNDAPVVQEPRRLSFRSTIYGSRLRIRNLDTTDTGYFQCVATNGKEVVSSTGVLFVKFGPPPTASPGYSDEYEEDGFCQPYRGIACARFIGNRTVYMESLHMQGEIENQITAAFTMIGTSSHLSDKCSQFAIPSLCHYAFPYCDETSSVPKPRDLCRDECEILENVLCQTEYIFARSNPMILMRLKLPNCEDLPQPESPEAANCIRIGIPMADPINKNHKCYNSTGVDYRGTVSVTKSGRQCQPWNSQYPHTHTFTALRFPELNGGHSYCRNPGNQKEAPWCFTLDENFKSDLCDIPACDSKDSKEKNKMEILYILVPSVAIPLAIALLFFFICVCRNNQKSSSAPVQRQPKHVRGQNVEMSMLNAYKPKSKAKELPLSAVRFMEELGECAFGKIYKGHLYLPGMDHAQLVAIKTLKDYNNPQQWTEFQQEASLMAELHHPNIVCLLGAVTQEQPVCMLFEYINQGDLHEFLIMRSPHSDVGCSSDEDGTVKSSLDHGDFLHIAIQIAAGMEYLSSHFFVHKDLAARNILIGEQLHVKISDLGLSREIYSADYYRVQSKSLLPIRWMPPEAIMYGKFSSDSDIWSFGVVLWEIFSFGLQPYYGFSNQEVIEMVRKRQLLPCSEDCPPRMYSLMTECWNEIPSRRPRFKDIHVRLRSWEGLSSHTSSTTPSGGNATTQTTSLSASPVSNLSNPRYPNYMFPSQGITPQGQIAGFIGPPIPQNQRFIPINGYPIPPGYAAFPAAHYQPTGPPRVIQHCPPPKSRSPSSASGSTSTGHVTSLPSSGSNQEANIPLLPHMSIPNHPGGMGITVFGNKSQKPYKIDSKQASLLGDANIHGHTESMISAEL
# METHOD NOTES: cell-based or functional assay
Entries and their measured IC50, cell viability (CellTiter-Glo, 72 h), JHOM1 cells follow.

BINDER	OBS VALUE
ADC-B (antibody, human IgG1, kappa, V domains shown, SMCC-DM1 bonded via lysine residues of the antibody (chain and positions not stated); SMCC-DM1 bonded via lysine residues of the antibody (chain and positions not stated); DAR 3.0 to 3.20) VH: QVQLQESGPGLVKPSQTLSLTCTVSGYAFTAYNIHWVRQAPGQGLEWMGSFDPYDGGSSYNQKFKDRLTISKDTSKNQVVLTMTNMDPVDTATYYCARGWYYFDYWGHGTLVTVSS VL: DIVMTQTPLSLPVTPGEPASISCRASKSISKYLAWYQQKPGQAPRLLIYSGSTLQSGIPPRFSGSGYGTDFTLTINNIESEDAAYYFCQQHDESPYTFGEGTKVEIKR	24.3 nM
ADC-A (antibody, human IgG1, kappa, V domains shown, MC-VC-PAB-MMAE bonded via cysteine residues of the antibody (chain and positions not stated); MC-VC-PAB-MMAE bonded via cysteine residues of the antibody (chain and positions not stated); DAR 3.89 to 5.09, Antibody-drug conjugate of Ab1; also called Ab1-MC-VC-PAB-MMAE) VH: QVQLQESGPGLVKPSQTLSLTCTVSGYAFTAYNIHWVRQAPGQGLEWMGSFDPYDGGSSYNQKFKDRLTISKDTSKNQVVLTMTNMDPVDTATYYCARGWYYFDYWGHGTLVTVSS VL: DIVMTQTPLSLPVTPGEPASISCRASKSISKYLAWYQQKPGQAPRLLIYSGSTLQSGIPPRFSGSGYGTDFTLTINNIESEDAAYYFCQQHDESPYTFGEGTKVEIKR	15.6 nM

// next entry
Data request: What value of measured IC50, cell viability (CellTiter-Glo, 72 h), JHOM1 cells is listed for ADC-C (antibody, human IgG1, kappa, V domains shown, MAL-VC-PAB-DM1 bonded via cysteine residues of the antibody (chain and positions not stated)) VH: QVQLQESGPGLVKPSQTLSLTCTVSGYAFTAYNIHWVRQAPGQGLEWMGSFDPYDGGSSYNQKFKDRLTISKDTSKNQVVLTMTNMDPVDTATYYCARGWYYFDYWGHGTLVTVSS VL: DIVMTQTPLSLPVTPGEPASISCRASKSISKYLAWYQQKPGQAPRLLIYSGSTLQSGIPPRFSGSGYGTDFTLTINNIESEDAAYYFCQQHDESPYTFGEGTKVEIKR ?
Data returned: > 1000 nM
